Test system: PIP5K2B
Conditions: concentration: 1 μM, replicates: in singlicate; n = 1;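 also: KINOMEscan kinase panel screen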
measurement_name: %Inh
Give me the value, and tack the unit on after it.

// %Inh lookup, compound = FC(F)(F)c1ccc(-c2cc(-c3c[nH]nc3-c3ccccn3)ccn2)cc1 , result: 17%

Kindly note the recorded %Inh for CCc1nc(-c2cccc(C)c2)c(-c2ccnc(NC(=O)c3ccccc3)c2)s1 , which is 64%

Lab note: Cc1ccc(NC(=O)c2cccc(C#N)c2)cc1-c1ccc(C(=O)Nc2ccncc2)cc1 gave %Inh of 23%

# %Inh of Nc1nc(-c2ccc3c(N)n[nH]c3c2)cc(N2CCCCC2)n1 = 4%

// sample FC(F)(F)c1cc(Nc2nccc(-c3c(-c4ccc(Cl)cc4)nn4ncccc34)n2)ccc1Cl , its %Inh was 0%

%Inh reading for CS(=O)(=O)CCNCc1ccc(-c2ccc3ncnc(Nc4ccc(OCc5ccccc5)c(Cl)c4)c3c2)o1.Cl : 0%

Entry under test: Cn1ccc2ncnc(Nc3ccc(Oc4cccc(Cl)c4)c(Cl)c3)c21 . Its %Inh was 54%

For CNc1nccc(-c2c(-c3ccc(F)cc3)ncn2CCCN2CCOCC2)n1 the compound record lists %Inh as 0%

---

Test system: WNK1
Details: concentration: 1 μM, replicates: in singlicate; n = 1
For each record, write down the corresponding %Inh.
The reply should contain only the number, in %.

Memo: COc1ccc(-c2oc3ncnc(N)c3c2-c2ccc(OC)cc2)cc1 , reported %Inh: 22

Measured %Inh, c1ccc(-c2ccc3c(-c4ccnc(Nc5ccc6c(c5)OCCO6)n4)cnn3n2)cc1 : 2

Briefly, %Inh measured for O=C(Nc1ccccc1)Nc1ccc(Oc2ccc3nccn3n2)cc1 : 0

The recorded %Inh for entry CN1CCC(n2cnc(-c3ccc(F)cc3)c2-c2ccnc(NC3CCNCC3)n2)CC1 equals 21

Entry COc1ccc(Nc2nccc(N3CCC(NC(=O)Nc4ccc5c(c4)OCO5)C3)n2)cc1 (stereo not drawn) , %Inh reported as 2

Memo: Nc1nc(-c2ccc3c(N)n[nH]c3c2)cc(N2CCCCC2)n1 , reported %Inh: 0

Looking up NC(=O)c1sc(-n2cnc3ccccc32)cc1OCc1ccccc1F , I found its %Inh recorded as 3

%Inh measured on Cl.Cl.c1ccc(-c2cc3ccncc3cc2OC2CCNCC2)cc1 = 7

Form field %Inh, entry COc1ccc(NC(=O)c2ccc(-c3cc(-c4nnc(C)o4)ccc3C)cc2)cc1 : 0

Quick note, %Inh for Fc1ccc(-c2ncn(CCCNCc3ccccc3)c2-c2ccncc2)cc1 landed at 0

// %Inh value for Fc1ccc(Nc2nccc(-c3c(-c4ccc(Cl)cc4)nn4ncccc34)n2)cc1F : 42

%Inh reading for CC(C)N1CCC(n2cnc(-c3ccc(F)cc3)c2-c2ccnc(N)n2)CC1 : 0

Recorded %Inh (compound CC(C)(C)OC(=O)NC1CCCN(c2cc(-c3ccc4c(N)n[nH]c4c3)nc(N)n2)C1 (stereo not drawn) ): 6

Reported %Inh for CNc1nccc(-c2c(-c3ccc(F)cc3)ncn2CCCN2CCOCC2)n1 was 1

Sample Cc1ccc(O)cc1Nc1cc(C(F)(F)F)nc2ccc(-c3ccncc3)cc12 ; %Inh observed: 0

Lab book: %Inh of COc1cc2ncnc(Nc3ccc(OCc4ccccc4Br)c(Cl)c3)c2cc1OC.Cl noted as 14

Form field %Inh, entry O=C(Nc1n[nH]c2nc(-c3ccco3)c(Br)cc12)c1ccc(CN2CCCC2)cc1.O=C(O)[C@H](O)[C@@H](O)C(=O)O : 0

Entry Nc1nc(-c2cccnc2)c(-c2ccnc3ccccc23)s1 ; %Inh = 0

---

Test system: HIPK1
Settings: concentration: 1 μM, replicates: in singlicate; n = 1
measurement_name: %Inh (%)
Unit % implied. Number only.

Noted for CC(=O)Nc1n[nH]c2ncc(-c3ccccc3)cc12 : its %Inh reads 45

Form: molecule = CCc1nc(-c2cccc(C)c2)c(-c2ccnc(NC(=O)c3ccccc3)c2)s1 ; %Inh = 25

Quick note, %Inh for Cc1cccc(-c2nc(Nc3ccc4[nH]nnc4c3)c3ccccc3n2)n1 landed at 0

Documented %Inh of CS(=O)(=O)CCNCc1nc(-c2ccc3ncnc(Nc4ccc(OCc5cccc(F)c5)c(Cl)c4)c3c2)cs1.Cl : 0

Record FC(F)(F)c1ccc(-c2nn3ncccc3c2-c2ccnc(Nc3cccc(C(F)(F)F)c3)n2)cc1 , field %Inh: 39

Record O=C(Nc1ccccc1F)NC1CCN(c2ccnc(Nc3ccc(F)cc3)n2)C1 (stereo not drawn) . Reported %Inh: 0

According to the records, this molecule CCc1nc(-c2cccc(N(C)S(=O)(=O)c3ccccc3)c2)c(-c2ccnc(Nc3ccc(N4CCN(C(C)=O)CC4)nc3)n2)s1 displays %Inh of 1

So, CNc1nccc(-c2c(-c3ccc(F)cc3)ncn2CCCN2CCOCC2)n1 ? Its %Inh was 0

The reported %Inh of the molecule Fc1ccc(Nc2nccc(-c3c(-c4ccc(Cl)cc4)nn4ncccc34)n2)cc1F was 33

Noted for Cn1ccc2ncnc(Nc3ccc(Oc4cccc(Cl)c4)c(Cl)c3)c21 : its %Inh reads 32

// sample COc1ccc(Nc2nccc(N3CCC(NC(=O)c4cccc(NC(C)=O)c4)C3)n2)cc1 (stereo not drawn) , its %Inh was 0

Consider COC(=O)c1c(-c2ccccc2)c2cc(Cl)ccc2c(=O)n1Cc1ccc(S(C)(=O)=O)cc1 . Its measured %Inh is 14

Form: molecule = COc1ccc(Nc2nccc(N3CCC(NC(=O)Nc4ccc5c(c4)OCO5)C3)n2)cc1 (stereo not drawn) ; %Inh = 0

Entry CC(C)(C)OC(=O)NC1CCCN(c2cc(-c3ccc4c(N)n[nH]c4c3)nc(N)n2)C1 (stereo not drawn) , %Inh reported as 0

Note to self: %Inh recorded for Fc1cccc(COc2ccc(Nc3ncnc4sc(-c5ccc[nH]5)cc34)cc2Cl)c1 was 0

# %Inh (molecule: Cl.O=S(=O)(c1cccc(F)c1)c1ccc(Nc2ncnc3cc(Br)sc23)cc1Cl ) is 0

Lookup result for Cc1ccc(NC(=O)c2cccc(C#N)c2)cc1-c1ccc(C(=O)Nc2ccncc2)cc1 ; measured %Inh: 0

%Inh reading for COc1ccc(NC(=O)c2ccc(-c3cc(-c4nnc(C)o4)ccc3C)cc2)cc1 : 0

The reported %Inh of the molecule N#Cc1ccc(Oc2ccc(Nc3ncnc4cc[nH]c34)cc2Cl)cc1 was 32

For reference, reported %Inh for Fc1cccc(COc2ccc(Nc3ncnc4cc[nH]c34)cc2Cl)c1 stands at 27

Entry O=C(CCO)NCCn1ccc2ncnc(Nc3ccc(Oc4cccc(C(F)(F)F)c4)c(Cl)c3)c21 , %Inh reported as 19

// %Inh lookup, molecule = COc1cc2c(Nc3cccc(NC(=O)c4ccccc4)c3)ncnc2cc1OCCCN1CCOCC1 , result: 0

Form field %Inh, entry Clc1cccc(-c2nc(Nc3ccncc3)c3ccccc3n2)c1 : 43

Reported %Inh of Cl.c1ccc(Cn2ncc3cc(Nc4ncnc5ccccc45)ccc32)cc1 : 0

Form field %Inh, entry CCC(CC)(CC)n1cnc2c(N)ncnc21 : 17

%Inh recorded for this molecule, CS(=O)(=O)CCNCc1ccc(-c2ccc3ncnc(Nc4ccc(OCc5ccccc5)c(Cl)c4)c3c2)o1.Cl , is 0

Lookup result for COc1ccc(-c2oc3ncnc(N)c3c2-c2ccc(OC)cc2)cc1 ; measured %Inh: 0

response.value for Cc1ccc(O)cc1Nc1cc(C(F)(F)F)nc2ccc(-c3ccncc3)cc12 (field: %Inh) = 8

According to the records, this molecule Nc1n[nH]c2nnc(-c3ccccc3)cc12 displays %Inh of 56

Noted for CSc1nn2c(=O)cc(N3CCOCC3)nc2n1Cc1cccc(Cl)c1Cl : its %Inh reads 11

The molecule identified as FC(F)(F)c1ccc(-c2cc(-c3c[nH]nc3-c3ccccn3)ccn2)cc1 registered its %Inh at 0

Entry under test: CC(C)(C)c1ccc(-n2cnc3c(N)ncnc32)cc1 . Its %Inh was 19

# %Inh (molecule: Fc1cccc(COc2ccc(Nc3ncnc4nn5ccccc5c34)cc2Cl)c1 ) is 0

The value of %Inh measured for the molecule Cc1ccc(C)c(NC(=O)NCCNc2ccnc(Nc3ccc(F)cc3)n2)c1 turned out to be 0

The measured %Inh associated with C[C@H]1CC[C@@H](C(=O)Nc2ccccc2)CN1c1cc(-c2ccc3c(N)n[nH]c3c2)nc(N)n1 reads 22

The reported value for Clc1ccc(-c2cc(-c3c[nH]nc3-c3ccccn3)ccn2)cc1 in terms of %Inh is 7

---

Test system: DCAMKL1
Construct: gene DCLK1
Settings: concentration: 1 μM, replicates: in singlicate; n = 1
measurement_name: %Inh (%)
# output: bare number, implied unit %

Recorded %Inh (compound Clc1ccc(-c2cc(-c3c[nH]nc3-c3ccccn3)ccn2)cc1 ): 0

Kindly note the recorded %Inh for COc1cc2c(Nc3cccc(NC(=O)c4ccccc4)c3)ncnc2cc1OCCCN1CCOCC1 , which is 0

Note to self: %Inh recorded for O=C(Nc1n[nH]c2nc(-c3ccco3)c(Br)cc12)c1ccc(CN2CCCC2)cc1.O=C(O)[C@H](O)[C@@H](O)C(=O)O was 0

The value of %Inh measured for the compound CN1CCC(n2cnc(-c3ccc(F)cc3)c2-c2ccnc(NC3CCNCC3)n2)CC1 turned out to be 0

Source: paper PMC5540273
